These measurements were taken from patent US7662826B2.

>  <Compound>
O=C(Nc1cnc2c(-c3ccc(Cl)cc3)cnn2c1)c1ccccc1N1CCNCC1

>  <melting point>
236 to 238 °C

$$$$
>  <Compound>
O=C(NCc1ccccc1N1CCNCC1)Nc1cnc2c(-c3cccc(Cl)c3)cnn2c1

>  <melting point>
196 to 197 °C

$$$$
>  <Compound>
CC(C)NC1CCN(c2ccccc2NC(=O)c2cnc3c(-c4cccc(Cl)c4)cnn3c2)CC1

>  <melting point>
206 to 208 °C

$$$$
>  <Compound>
C=CCNC1CCN(c2ccccc2NC(=O)Nc2cnc3c(-c4cccc(Cl)c4)cnn3c2)CC1

>  <melting point>
150 to 154 °C (dec.)

$$$$
>  <Compound>
CCCNC1CCN(c2ccccc2NC(=O)C2=CNc3c(-c4ccc(Cl)cc4)cnn3C2)CC1

>  <melting point>
216 to 217 °C

$$$$
>  <Compound>
CCCCNC1CCN(c2ccccc2NC(=O)c2cnc3c(-c4ccc(Cl)cc4)cnn3c2)CC1

>  <melting point>
222 to 224 °C

$$$$
>  <Compound>
O=C(Nc1cnc2c(-c3cccc(Cl)c3)cnn2c1)Nc1ccccc1N1CCNCC1

>  <melting point>
120 to 140 °C

$$$$
>  <Compound>
CCNC1CCN(c2ccccc2NC(=O)Nc2cnc3c(-c4cccc(Cl)c4)cnn3c2)CC1

>  <melting point>
157 to 159 °C (dec.)

$$$$
>  <Compound>
COc1ccc(NC(=O)c2ccn3ncc(-c4ccc(Cl)cc4)c3n2)cc1N1CCNCC1

>  <melting point>
210 to 212 °C

$$$$
>  <Compound>
CCNC1CCN(c2ccccc2NC(=O)Nc2cnc3c(-c4ccc(Cl)cc4)cnn3c2)CC1

>  <melting point>
155 to 157 °C

$$$$
>  <Compound>
NCCN[C@H]1CCN(c2ccccc2NC(=O)c2ccn3ncc(-c4cccc(Cl)c4)c3n2)C1

>  <melting point>
160 to 162 °C

$$$$
>  <Compound>
N[C@@H]1CCN(c2ccccc2NC(=O)c2cnc3c(-c4ccc(Cl)cc4)cnn3c2)C1

>  <melting point>
184 to 186 °C

$$$$
>  <Compound>
CCCNC1CCN(c2ccccc2NC(=O)c2cnc3c(-c4ccc(Cl)cc4)cnn3c2)CC1

>  <melting point>
235 to 237 °C

$$$$
>  <Compound>
NC[C@@H]1CCCN1c1ccccc1NC(=O)c1cnc2c(-c3ccc(Cl)cc3)cnn2c1

>  <melting point>
203 to 204 °C

$$$$
>  <Compound>
O=C(NCc1ccccc1N1CCOCC1)c1ccn2nc(-c3ccccc3)cc2n1

>  <melting point>
190 to 192 °C

$$$$
>  <Compound>
CNC[C@H]1CCCN1c1ccccc1NC(=O)c1ccn2ncc(-c3cccc(Cl)c3)c2n1

>  <melting point>
97 to 98 °C

$$$$
>  <Compound>
NC[C@H]1CCCN1c1ccccc1NC(=O)c1ccn2ncc(-c3cccc(Cl)c3)c2n1

>  <melting point>
168 to 170 °C

$$$$
>  <Compound>
CNC1CCN(c2ccccc2NC(=O)c2cnc3c(-c4cccc(Cl)c4)cnn3c2)CC1

>  <melting point>
215 to 217 °C

$$$$
>  <Compound>
CC(C)NC1CCN(c2ccccc2NC(=O)c2cnc3c(-c4ccc(Cl)cc4)cnn3c2)CC1

>  <melting point>
246 to 247 °C

$$$$
>  <Compound>
CCCNC1CCN(c2ccccc2NC(=O)c2cnc3c(-c4cccc(Cl)c4)cnn3c2)CC1

>  <melting point>
187 to 189 °C

$$$$
>  <Compound>
CCCNC1CCN(c2ccccc2NC(=O)Nc2cnc3c(-c4cccc(Cl)c4)cnn3c2)CC1

>  <melting point>
152 to 155 °C

$$$$
>  <Compound>
O=C(Nc1cnc2c(-c3cccc(Cl)c3)cnn2c1)c1ccccc1N1CCNCC1

>  <melting point>
269 to 271 °C

$$$$
>  <Compound>
CCC(C)NC1CCN(c2ccccc2NC(=O)c2cnc3c(-c4ccc(Cl)cc4)cnn3c2)CC1 (stereo not drawn)

>  <melting point>
229 to 231 °C

$$$$
>  <Compound>
O=C(Nc1ccc(N2CCNCC2)cc1)c1cnc2c(-c3ccc(Cl)cc3)cnn2c1

>  <melting point>
267 to 269 °C (dec.)

$$$$

###

Property Measured: melting point

>  <Molecule>
CNC1CCN(c2ccccc2NC(=O)Nc2cnc3c(-c4ccc(Cl)cc4)cnn3c2)CC1 [Compound B36]

>  <Result>
137 to 140 °C

$$$$
>  <Molecule>
CCC(C)NC1CCN(c2ccccc2NC(=O)Nc2cnc3c(-c4ccc(Cl)cc4)cnn3c2)CC1 (stereo not shown) [Compound B336]

>  <Result>
> 300 °C

$$$$
>  <Molecule>
CC(C)NC1CCN(c2ccccc2NC(=O)Nc2cnc3c(-c4ccc(Cl)cc4)cnn3c2)CC1 [Compound B203]

>  <Result>
> 300 °C

$$$$
>  <Molecule>
CNC1CCN(c2ccccc2NC(=O)Nc2cnc3c(-c4cccc(Cl)c4)cnn3c2)CC1 [Compound B55]

>  <Result>
117 to 128 °C (dec.)

$$$$

###

Reported melting point values are given for each entry in this list.
Property Measured: melting point

>  <Molecule>
CCC(C)NC1CCN(c2ccccc2NC(=O)c2cnc3c(-c4cccc(Cl)c4)cnn3c2)CC1 (centres unmarked)

>  <Result>
202 to 204 °C

$$$$
>  <Molecule>
NC[C@H]1CCCN1c1ccccc1NC(=O)c1ccn2ncc(-c3ccc(Cl)cc3)c2n1

>  <Result>
186 to 188 °C

$$$$
>  <Molecule>
O=C(Nc1ccccc1N1CC[C@@H](NCCO)C1)c1cnc2c(-c3ccc(Cl)cc3)cnn2c1

>  <Result>
164 to 165 °C

$$$$
>  <Molecule>
O=C(Nc1ccccc1N1CCC[C@@H]1CNCCO)c1ccn2ncc(-c3cccc(Cl)c3)c2n1

>  <Result>
118 to 121 °C

$$$$
>  <Molecule>
C=CCNC1CCN(c2ccccc2NC(=O)Nc2cnc3c(-c4ccc(Cl)cc4)cnn3c2)CC1

>  <Result>
152 to 153 °C

$$$$
>  <Molecule>
O=C1CCN(c2ccccc2NC(=O)c2cnc3c(-c4cccc(Cl)c4)cnn3c2)CC1

>  <Result>
212 °C

$$$$
>  <Molecule>
CCNC1CCN(c2ccccc2NC(=O)c2cnc3c(-c4ccc(Cl)cc4)cnn3c2)CC1

>  <Result>
234 to 236 °C

$$$$
>  <Molecule>
C=CCNC1CCN(c2ccccc2NC(=O)c2cnc3c(-c4ccc(Cl)cc4)cnn3c2)CC1

>  <Result>
229 to 230 °C

$$$$

###

Quick list: melting point per entry.

>  <Compound>
CCCNC1CCN(c2ccccc2NC(=O)Nc2cnc3c(-c4ccc(Cl)cc4)cnn3c2)CC1 [Compound B41]

>  <melting point>
151 to 153 °C

$$$$
>  <Compound>
CCNC1CCN(c2ccccc2NC(=O)c2cnc3c(-c4cccc(Cl)c4)cnn3c2)CC1 [Compound B5]

>  <melting point>
193 to 195 °C

$$$$
>  <Compound>
CCCCNC1CCN(c2ccccc2NC(=O)c2cnc3c(-c4cccc(Cl)c4)cnn3c2)CC1 [Compound B8]

>  <melting point>
191 to 192 °C

$$$$
>  <Compound>
O=C(Nc1ccccc1N1CC[C@@H](NCCO)C1)c1ccn2ncc(-c3cccc(Cl)c3)c2n1 [Compound B170]

>  <melting point>
125 to 127 °C

$$$$
>  <Compound>
O=C(Nc1ccccc1N1CC[C@H](NCCO)C1)c1ccn2ncc(-c3cccc(Cl)c3)c2n1 [Compound B171]

>  <melting point>
124 to 125 °C

$$$$
>  <Compound>
NCCN[C@@H]1CCN(c2ccccc2NC(=O)c2ccn3ncc(-c4cccc(Cl)c4)c3n2)C1.O=C(O)/C=C/C(=O)O [Compound B172]

>  <melting point>
151 to 152 °C

$$$$
>  <Compound>
Clc1cccc(-c2cnn3ccc(/C4=N/c5ccccc5N5CCCCC5CN4)nc23)c1 (centres unmarked) [Compound B292]

>  <melting point>
190 to 191 °C

$$$$
>  <Compound>
O=C(Nc1ccccc1N1CCC[C@H]1CNCCO)c1cnc2c(-c3ccc(Cl)cc3)cnn2c1 [Compound B25]

>  <melting point>
134 to 136 °C

$$$$

###

Collected melting point values appear next to each entry.

>  <Molecule>
O=C(Nc1ccccc1N1CCC(O)CC1)c1cnc2c(-c3ccc(Cl)cc3)cnn2c1

>  <melting point>
256 to 261 °C

$$$$
>  <Molecule>
CCCCNC1CCN(c2ccccc2NC(=O)Nc2cnc3c(-c4ccc(Cl)cc4)cnn3c2)CC1

>  <melting point>
138 to 143 °C

$$$$
>  <Molecule>
COc1ccc(NC(=O)c2ccn3ncc(-c4cccc(Cl)c4)c3n2)cc1N1CCNCC1

>  <melting point>
100 to 102 °C (dec.)

$$$$
>  <Molecule>
O=C(NCc1ccccc1N1CCNCC1)Nc1cnc2c(-c3ccc(Cl)cc3)cnn2c1

>  <melting point>
185 to 187 °C

$$$$
>  <Molecule>
NCCC1CCCCN1c1ccccc1NC(=O)c1ccn2ncc(-c3cccc(Cl)c3)c2n1.O=C(O)/C=C/C(=O)O (centres unmarked)

>  <melting point>
211 to 212 °C

$$$$
>  <Molecule>
CNC1CCN(c2ccccc2NC(=O)c2cnc3c(-c4ccc(Cl)cc4)cnn3c2)CC1

>  <melting point>
226 to 228 °C

$$$$
>  <Molecule>
NCC1CCCCN1c1ccccc1NC(=O)c1ccn2ncc(-c3cccc(Cl)c3)c2n1 (centres unmarked)

>  <melting point>
159 to 160 °C

$$$$
>  <Molecule>
O=C(Nc1cnc2c(-c3ccc(Cl)cc3)cnn2c1)Nc1ccccc1N1CCNCC1

>  <melting point>
183 to 184 °C

$$$$
